target: Adenosine receptor A1 (Mus musculus, UniProt Q60612); test: Displacement of [125I]AB-MECA from recombinant mouse A1AR expressed in HEK293 cells assessed as inhibitory constant by radio ligand binding assay
Sequence (Q60612 whole entry): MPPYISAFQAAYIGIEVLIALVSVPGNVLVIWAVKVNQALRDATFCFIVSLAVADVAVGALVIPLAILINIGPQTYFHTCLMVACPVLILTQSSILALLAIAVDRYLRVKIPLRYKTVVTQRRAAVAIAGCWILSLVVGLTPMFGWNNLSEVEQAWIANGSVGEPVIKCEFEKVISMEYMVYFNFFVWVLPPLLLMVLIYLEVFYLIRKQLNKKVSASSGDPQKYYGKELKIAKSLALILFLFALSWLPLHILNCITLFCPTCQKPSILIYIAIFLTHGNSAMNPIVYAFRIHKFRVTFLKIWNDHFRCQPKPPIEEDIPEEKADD
MEASURED PROPERTY: Ki (nM)

CNC(=O)[C@H]1O[C@@H](n2cnc3c(NC)nc(C#Cc4ccc(Cl)s4)nc32)[C@H](O)[C@@H]1O :: 4170

a: CNC(=O)[C@@]12C[C@@H]1[C@@H](n1cnc3c(NC)nc(C#Cc4ccc(F)s4)nc31)[C@H](O)[C@@H]2O
b: CCCNc1nc(C#Cc2ccc(Cl)s2)nc2c1ncn2[C@@H]1O[C@H](C(=O)NC)[C@@H](O)[C@H]1O
c: CCOC(=O)[C@@]12C[C@@H]1[C@@H](n1cnc3c(NC)nc(C#Cc4ccc(F)s4)nc31)[C@H](O)[C@@H]2O
## Task Hey, can you sort those molecules up there by Ki, smallest first? // respond by listing labels in the order requested
## Result b, c, a
